System: RAW 264.7 macrophages
Assay: SAFIRE macrophage assay: host toxicity (adherent macrophage count, morphology)
Type: cell-based
Conditions: 5 uM
Give YES when the value for 5 uM Avg Cell # Score is at least 100. Give NO when it is less.

Exercise: Please check the record O=C1OC(COc2ccc(Cl)c(Cl)c2)CN1c1ccc(N2CCOCC2)cc1 (stereo not shown) and state if its 5 uM Avg Cell # Score is at or above 100.
Solution: YES

Exercise: Please check the record N[C@H]1CCN(CC(O)COc2cc(Cl)cc(Cl)c2)C1 (stereo partly shown) and state if its 5 uM Avg Cell # Score is at or above 100.
Solution: NO

Exercise: Please check the record NC1CCN(CC(O)COc2ccc(Cl)cc2)CC1 (stereo not shown) and state if its 5 uM Avg Cell # Score is at or above 100.
Solution: YES

Exercise: Please check the record OC(COc1cccc(Cl)c1)CN1CCC(Nc2nccc(C(F)(F)F)n2)CC1 (stereo not shown) and state if its 5 uM Avg Cell # Score is at or above 100.
Solution: NO

Exercise: Please check the record OC(COc1ccc(Cl)c(Cl)c1)CN1C2CCC1COC2 (stereo not shown) and state if its 5 uM Avg Cell # Score is at or above 100.
Solution: YES

Exercise: Please check the record O[C@H](COc1ccc(Cl)c(Cl)c1)CN1CCC(Nc2nccc(C(F)(F)F)n2)CC1 and state if its 5 uM Avg Cell # Score is at or above 100.
Solution: NO

Exercise: Please check the record OC(COc1ccccc1C(F)(F)F)CN1CCC(Nc2nccc(C(F)(F)F)n2)CC1 (stereo not shown) and state if its 5 uM Avg Cell # Score is at or above 100.
Solution: NO

----------
Assign 25 uM Avg Antibacterial Score to each entry below.
System: S. Typhimurium SL1344 (sifB::gfp) in RAW 264.7 macrophages
Assay: SAFIRE macrophage assay: intracellular bacterial load (GFP signal within macrophages)
Type: cell-based, Salmonella enterica serotype Typhimurium
Conditions: 25 uM; 'Toxic' given instead of a score
Description: In SAFIRE, we used MATLAB software to count the number of macrophages that remain adherent and retain the red fluorescence of MitoTracker, an indicator of voltage across the mitochondrial inner membrane. […] Non-toxic analogs that reduced bacterial load by at least 60% at 5 µM and 25 µM in SAFIRE, as compared with DMSO, progressed and were evaluated in SAFIRE across eight or more concentrations, ranging from 0.001 µM to 50 µM (n = 2). […]
Just the number.

Exercise: Which 25 uM Avg Antibacterial Score is listed for O=C1OC(COc2ccc(Cl)c(Cl)c2)CN1C1CCNC1 (centres unmarked) ?
Solution: 51

Exercise: Which 25 uM Avg Antibacterial Score is listed for N#Cc1ccc(OCC(O)CN2CCC(Nc3nccc(C(F)(F)F)n3)CC2)cc1 (centres unmarked) ?
Solution: 23

Exercise: Which 25 uM Avg Antibacterial Score is listed for COc1ccc(OCC(O)CN2CCC(N)C2)cc1 (centres unmarked) ?
Solution: 91

Exercise: Which 25 uM Avg Antibacterial Score is listed for CN(CC(O)COc1ccc(Cl)c(Cl)c1)C1CCNCC1 (centres unmarked) ?
Solution: 16

Exercise: Which 25 uM Avg Antibacterial Score is listed for OC(COc1ccccc1Cl)CN1CCC(NC2CC2)C1 (centres unmarked) ?
Solution: 79

Exercise: Which 25 uM Avg Antibacterial Score is listed for OC(COc1ccc(Cl)c(Cl)c1)CN1CCC(N2CCOCC2)CC1 (centres unmarked) ?
Solution: 76

Exercise: Which 25 uM Avg Antibacterial Score is listed for CNC1CCN(C[C@H](O)COc2ccc(Cl)c(Cl)c2)C1 (some centres unmarked) ?
Solution: 46

Exercise: Which 25 uM Avg Antibacterial Score is listed for OC(COc1ccc(Cl)c(Cl)c1)CN1CCOC2(CCOCC2)C1 (centres unmarked) ?
Solution: 95

Exercise: Which 25 uM Avg Antibacterial Score is listed for CC(=O)NC1CCN(CC(O)COc2ccc(Cl)c(Cl)c2)CC1 (centres unmarked) ?
Solution: 78

Exercise: Which 25 uM Avg Antibacterial Score is listed for NC1CCN(CC(O)COc2c(Cl)cccc2Cl)CC1 (centres unmarked) ?
Solution: 30

Exercise: Which 25 uM Avg Antibacterial Score is listed for OC(COc1ccc(Cl)c(Cl)c1)CN1CCC(Nc2ncccn2)CC1 (centres unmarked) ?
Solution: 23

Exercise: Which 25 uM Avg Antibacterial Score is listed for N[C@@H]1CCN(CC(O)COc2ccc(Cl)c(Cl)c2)C1 (some centres unmarked) ?
Solution: 14

Exercise: Which 25 uM Avg Antibacterial Score is listed for OC(COc1ccc(Cl)c(Cl)c1)CN1C2CCC1COC2 (centres unmarked) ?
Solution: 72

Exercise: Which 25 uM Avg Antibacterial Score is listed for NC1CCN(C[C@@H](O)COc2ccc(Cl)c(Cl)c2)C1 (some centres unmarked) ?
Solution: 33

Exercise: Which 25 uM Avg Antibacterial Score is listed for N[C@@H]1CCN(CC(O)COc2cc(Cl)cc(Cl)c2)C1 (some centres unmarked) ?
Solution: 9
